assay_text: Selectivity ratio of relative binding affinity for ERalpha (unknown origin) to relative binding affinity to ERbeta (unknown origin)

>  <compound>
Cc1ncsc1-c1ccc([C@H](C)NC(=O)[C@@H]2C[C@@H](O)CN2C(=O)[C@@H](NC(=O)CCCCCOc2ccc(N(CC(F)(F)F)S(=O)(=O)C3CC4OC3C(c3ccc(O)cc3)=C4c3ccc(O)cc3)cc2)C(C)(C)C)cc1 (stereo not given in full)

>  <Selectivity ratio>
1.33

$$$$
>  <compound>
O=C(COc1ccc(C2CCC(=O)NC2=O)cc1)NCCCCCCNC(=O)COc1ccc(N(CC(F)(F)F)S(=O)(=O)C2CC3OC2C(c2ccc(O)cc2)=C3c2ccc(O)cc2)cc1 (stereo not given)

>  <Selectivity ratio>
1.64

$$$$
>  <compound>
CCN(c1ccc(OCCCCCCCCCC(=O)N[C@H](C(=O)N2C[C@H](O)C[C@H]2C(=O)NCc2ccc(-c3scnc3C)cc2)C(C)(C)C)cc1)S(=O)(=O)C1CC2OC1C(c1ccc(O)cc1)=C2c1ccc(O)cc1 (stereo not given in full)

>  <Selectivity ratio>
0.75

$$$$
>  <compound>
CCN(c1ccc(OC)cc1)S(=O)(=O)C1CC2OC1C(c1ccc(O)cc1)=C2c1ccc(O)cc1 (stereo not given)

>  <Selectivity ratio>
3.39

$$$$
>  <compound>
CCN(c1ccc(OCCCCCC(=O)N[C@H](C(=O)N2C[C@@H](O)C[C@H]2C(=O)N[C@@H](C)c2ccc(-c3scnc3C)cc2)C(C)(C)C)cc1)S(=O)(=O)C1CC2OC1C(c1ccc(O)cc1)=C2c1ccc(O)cc1 (stereo not given in full)

>  <Selectivity ratio>
0.81

$$$$
